B1: library; numbered along this chain (parent)
chain: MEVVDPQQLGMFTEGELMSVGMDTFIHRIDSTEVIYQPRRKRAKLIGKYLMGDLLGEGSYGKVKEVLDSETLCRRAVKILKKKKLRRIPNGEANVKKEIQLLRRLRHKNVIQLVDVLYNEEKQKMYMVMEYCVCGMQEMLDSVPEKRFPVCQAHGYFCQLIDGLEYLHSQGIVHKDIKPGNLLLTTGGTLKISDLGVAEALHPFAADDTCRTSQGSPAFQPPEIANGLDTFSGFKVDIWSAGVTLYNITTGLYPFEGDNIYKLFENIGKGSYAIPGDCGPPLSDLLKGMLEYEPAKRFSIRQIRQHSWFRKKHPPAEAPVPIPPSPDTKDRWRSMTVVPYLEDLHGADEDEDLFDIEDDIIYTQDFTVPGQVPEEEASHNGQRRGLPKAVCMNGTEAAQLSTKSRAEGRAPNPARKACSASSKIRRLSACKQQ

# Variants of: B1
# procedure.details: STK11 functional score (HeLa growth suppression), rescaled enrichment; synonymous median = 1, nonsense median = 0 (normalised score)
# condition.notes: with HeLa; variant type: missense
Recorded STK11 functional score, one value per entry.
Kindly provide the number alone.

Y340L ... 1.59
Q7V ... 1.37
K84S ... 1.71
A205I ... 1.47
Q220R ... 0.808

Can you look up the measured STK11 functional score of Y246V for me?
0.944

Another variant to check: G180R
0.948

Another variant to look at: V63D
-0.044

Try the variant S334W
0.649

Repeat with K311T
1.3

Please do the same for G233T as well.
1.7
